Biological target: T1, human PSMA expressed with an N-terminal hexahistidine tag (6h.hPSMA, R&D) (human, UniProt Q04609 44-750)
T1 construct: Bought soluble protein; also called soluble human PSMA; human PSMA protein
T1 sequence (Q04609 other isoform, or with tags, fused parts or gaps limits assumed): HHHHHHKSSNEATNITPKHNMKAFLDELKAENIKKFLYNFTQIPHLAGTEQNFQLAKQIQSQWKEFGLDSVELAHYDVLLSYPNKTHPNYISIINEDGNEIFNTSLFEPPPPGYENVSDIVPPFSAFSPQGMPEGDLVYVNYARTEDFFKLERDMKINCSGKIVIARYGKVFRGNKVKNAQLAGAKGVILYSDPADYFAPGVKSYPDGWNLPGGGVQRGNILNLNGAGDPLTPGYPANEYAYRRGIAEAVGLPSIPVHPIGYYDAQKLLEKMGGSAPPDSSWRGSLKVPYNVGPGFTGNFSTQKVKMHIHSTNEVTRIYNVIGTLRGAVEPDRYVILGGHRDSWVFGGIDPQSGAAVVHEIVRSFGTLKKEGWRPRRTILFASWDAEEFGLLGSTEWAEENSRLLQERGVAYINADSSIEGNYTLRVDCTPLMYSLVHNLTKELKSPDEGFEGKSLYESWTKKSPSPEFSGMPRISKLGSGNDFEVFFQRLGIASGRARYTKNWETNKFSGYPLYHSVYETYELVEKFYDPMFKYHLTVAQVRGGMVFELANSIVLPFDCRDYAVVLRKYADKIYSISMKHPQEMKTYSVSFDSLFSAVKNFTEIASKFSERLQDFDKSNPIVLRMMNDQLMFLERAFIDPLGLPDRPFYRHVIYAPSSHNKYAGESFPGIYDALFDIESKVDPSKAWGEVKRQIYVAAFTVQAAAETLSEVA
Experiment: SPR Biacore T-200, 37 C, antibody-capture (anti-human Fc), 6h.hPSMA as analyte
Experimental: In this example, anti-PSMA antibodies were assessed for their ability to bind to human PSMA. […] Measurements were conducted on a Biacore™ T-200 instrument (GE Healthcare). […] Kinetic association (kₐ) and dissociation (kd) rate constants were determined by fitting the real-time sensorgrams to a 1:1 binding model using Scrubber 2.0c curve fitting software. […]
REPORTED METRIC: koff (s⁻¹)
Numbers only here, please. The scale is s⁻¹.

Bench note: what koff did H1H11800P2 (antibody, human IgG1, V domains shown, human IgG1) VH: QVQLVESGGGVVQPGRSLRLSCAASGFTFSSYGMHWVRQAPGKGLEWVAVISYAGNNKYYVDSVKGRFTISRDNSKNTLYLQMNSLRAEDTAVYYCAKDPYYDFLTGSDYFDYWGQGTLVTVSS VL: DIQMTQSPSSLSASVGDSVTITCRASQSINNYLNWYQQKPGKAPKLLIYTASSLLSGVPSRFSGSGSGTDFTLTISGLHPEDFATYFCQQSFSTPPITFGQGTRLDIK show?
4.1e-05
